- system-under-test: cholecystokinin receptors (Cavia porcellus)
- Construct: Isolated, strip preparations were prepared from gall-bladders removed from male Dunkin-Hartley guinea-pigs; from tissue; host or cells: guinea-pig gall-bladder strips
- Sequence (Q63931 whole entry): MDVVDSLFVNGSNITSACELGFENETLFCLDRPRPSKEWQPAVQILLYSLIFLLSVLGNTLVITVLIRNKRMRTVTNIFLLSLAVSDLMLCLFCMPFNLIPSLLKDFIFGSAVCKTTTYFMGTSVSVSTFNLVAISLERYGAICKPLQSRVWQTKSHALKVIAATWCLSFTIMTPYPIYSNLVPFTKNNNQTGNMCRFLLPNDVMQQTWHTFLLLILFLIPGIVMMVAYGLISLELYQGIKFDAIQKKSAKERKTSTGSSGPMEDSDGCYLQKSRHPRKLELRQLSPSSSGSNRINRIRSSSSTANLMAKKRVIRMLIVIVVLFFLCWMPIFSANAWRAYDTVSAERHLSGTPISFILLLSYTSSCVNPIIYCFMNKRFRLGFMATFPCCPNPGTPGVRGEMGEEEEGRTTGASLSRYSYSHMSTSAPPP
- experimental-protocol: CCK-antagonist activity in isolated guinea-pig gall-bladder strip preparations
- Assay type: cell-based
- study-conditions: guinea-pig gall-bladder strips; CCK-8 as agonist; test compound incubated for 60 minutes; standard errors less than 5%
result-type: pKB
// print number alone

In the examples that follow, each entry is paired with its recorded pKB.
molecule_smiles=CCCCOC(=O)N[C@@H](Cc1c[nH]c2ccccc12)C(=O)N[C@@H](Cc1ccc2ccccc2c1)C(=O)N[C@@H](CC(=O)O)C(=O)NCCc1ccccc1C(F)(F)F readout_value=6.5
molecule_smiles=COc1ccc(CCNC(=O)[C@H](CC(=O)O)NC(=O)[C@H](Cc2ccc3ccccc3c2)NC(=O)[C@H](Cc2c[nH]c3ccccc23)NC(=O)OC(C)(C)C)cc1 readout_value=7.2

API: the following record is the query input.
Using the record for CC(C)(C)OC(=O)N[C@@H](Cc1c[nH]c2ccccc12)C(=O)N[C@@H](Cc1ccc2ccccc2c1)C(=O)N[C@@H](CC(=O)O)C(=O)NCC12CC3CC(CC(C3)C1)C2 , report its pKB.
5.8

###

- system-under-test: gastrin receptor (Mus musculus, UniProt P56481)
- Construct: assayed for gastrin activity using the mouse stomach assay; from tissue; host or cells: isolated mouse stomach
- Sequence (P56481 1-453): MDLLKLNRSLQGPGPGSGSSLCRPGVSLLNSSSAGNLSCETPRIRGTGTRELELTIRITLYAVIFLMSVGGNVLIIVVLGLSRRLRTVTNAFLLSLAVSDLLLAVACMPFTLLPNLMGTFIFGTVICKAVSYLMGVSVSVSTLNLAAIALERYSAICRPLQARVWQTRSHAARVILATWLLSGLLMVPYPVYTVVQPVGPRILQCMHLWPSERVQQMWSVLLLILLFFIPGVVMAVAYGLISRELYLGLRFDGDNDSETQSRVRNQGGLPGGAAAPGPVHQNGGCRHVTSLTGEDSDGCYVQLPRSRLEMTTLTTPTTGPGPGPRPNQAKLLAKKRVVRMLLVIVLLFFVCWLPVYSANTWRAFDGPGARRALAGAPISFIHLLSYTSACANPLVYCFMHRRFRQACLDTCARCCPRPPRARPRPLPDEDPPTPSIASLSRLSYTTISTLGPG
- experimental-protocol: mouse stomach assay for gastrin activity (isolated stomach, acid secretion)
- Format: cell-based
- study-conditions: mouse stomach; 10^-5 M test compound; relative to pentagastrin; NS = not significant
- Method: The compounds were assayed for gastrin activity using the mouse stomach assay as described by Black, J. W. and Shankley, N. P., Br. J. Pharmacol., 86, 571-579, (1985), and also in the guinea-pig fundus assay, as follows: […]
Non-standard residues stand in square brackets, D forms with d. Residues, ends and D or L forms follow the SMILES beside them. *: point of attachment. Trp(5-F) = N[C@@H](Cc1c[nH]c2ccc(F)cc12)C(=O)O; αMeW = C[C@](N)(Cc1c[nH]c2ccccc12)C(=O)O; 2Nal = N[C@@H](Cc1ccc2ccccc2c1)C(=O)O; Fmoc = O=C(OCC1c2ccccc2-c2ccccc21)*; Boc = CC(C)(C)OC(=O)*
result-type: Acid seretion at 10^-5 M test compound, relative to pentagastrin (%)
Write it as a number; the unit % goes unstated.

# count of solved cases: 3
compound="NC(=O)[C@H](Cc1ccccc1)NC(=O)[C@H](CC(=O)O)NC(=O)[C@H](Cc1ccc2ccccc2c1)NC(=O)[C@H](Cc1c[nH]c2ccccc12)NC(=O)OCC1c2ccccc2-c2ccccc21 [Example 16] (Fmoc-W[2Nal]DF-NH2)" unit_name=% readout_value=67
compound="CC(C)(C)OC(=O)N[C@@H](Cc1c[nH]c2ccccc12)C(=O)N[C@@H](Cc1ccc2ccccc2c1)C(=O)N[C@@H](CC(=O)O)C(=O)N[C@@H]1CCC[C@H]1c1ccccc1 (single isomer, unassigned; diastereomer 1) [Example 31]" unit_name=% readout_value=40
compound="CC(C)(C)OC(=O)N[C@@H](Cc1c[nH]c2ccc(F)cc12)C(=O)N[C@@H](Cc1ccc2ccccc2c1)C(=O)N[C@@H](CC(=O)O)C(=O)N[C@@H](Cc1ccccc1)C(N)=O [Example 18] (Boc-[Trp(5-F)][2Nal]DF-NH2)" unit_name=% readout_value=54

Kindly consider the entry below.
May I ask what Acid seretion at 10^-5 M test compound, relative to pentagastrin (%) has been recorded for CC(C)(C)OC(=O)N[C@@](C)(Cc1c[nH]c2ccccc12)C(=O)N[C@@H](Cc1ccc2ccccc2c1)C(=O)N[C@@H](CC(=O)O)C(=O)N[C@@H](Cc1ccccc1)C(N)=O [Example 17] (Boc-[αMeW][2Nal]DF-NH2) ?
44

###

- system-under-test: gastrin receptor (Cavia porcellus)
- Construct: Strips of muscle (approximately 2.5 cm by 1 cm) are removed from the proximal area of the stomach; from tissue; host or cells: guinea-pig proximal stomach (fundus) muscle strips
- Sequence (H0VZC5 1-426): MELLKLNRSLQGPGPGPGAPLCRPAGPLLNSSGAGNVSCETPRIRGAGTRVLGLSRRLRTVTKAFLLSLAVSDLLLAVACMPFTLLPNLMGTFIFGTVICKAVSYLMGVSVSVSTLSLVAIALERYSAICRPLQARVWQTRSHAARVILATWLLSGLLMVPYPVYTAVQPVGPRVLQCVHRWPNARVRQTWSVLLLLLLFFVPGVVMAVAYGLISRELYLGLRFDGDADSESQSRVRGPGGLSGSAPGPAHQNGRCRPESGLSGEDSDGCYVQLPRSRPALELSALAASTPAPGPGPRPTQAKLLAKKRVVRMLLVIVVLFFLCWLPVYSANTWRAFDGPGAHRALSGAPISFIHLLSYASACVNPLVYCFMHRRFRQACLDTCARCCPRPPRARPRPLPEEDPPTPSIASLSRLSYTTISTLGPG
- experimental-protocol: guinea-pig fundus assay for gastrin activity (stomach muscle strips)
- Format: cell-based
- study-conditions: 10^-8 M devazepide present, 60 minute equilibration, agonist e.g. pentagastrin, standard errors less than 5%
Non-standard residues stand in square brackets, D forms with d. Residues, ends and D or L forms follow the SMILES beside them. *: point of attachment. 1Nal = N[C@@H](Cc1cccc2ccccc12)C(=O)O; 2Nal = N[C@@H](Cc1ccc2ccccc2c1)C(=O)O; Phe(ol) = N[C@H](CO)Cc1ccccc1; Boc = CC(C)(C)OC(=O)*
Attribute: Kb
Write the number in µM without appending the unit.

compound="CC(C)(C)OC(=O)N[C@@H](Cc1c[nH]c2ccccc12)C(=O)N[C@@H](Cc1ccc2ccccc2c1)C(=O)N[C@H](CC(=O)O)C(=O)N[C@@H](Cc1ccccc1)C(N)=O [Example 12] (Boc-W[2Nal][dD]F-NH2)" readout_value=3.16

Consider the compound shown here: CC(C)(C)OC(=O)N[C@@H](Cc1c[nH]c2ccccc12)C(=O)N[C@@H](Cc1cccc2ccccc12)C(=O)N[C@@H](CC(=O)O)C(=O)N[C@@H](Cc1ccccc1)C(N)=O [Example 4] (Boc-W[1Nal]DF-NH2) What is its recorded Kb?
1.58

# lookup: Kb of CC(C)(C)OC(=O)N[C@@H](Cc1c[nH]c2ccccc12)C(=O)N[C@@H](Cc1ccc2ccccc2c1)C(=O)N[C@@H](CC(=O)O)C(=O)N[C@H](CO)Cc1ccccc1 [Example 9] (Boc-W[2Nal]D[Phe(ol)])
2.51

# query: Kb of entry COc1ccc2[nH]cc(CC(NC(=O)OC(C)(C)C)C(=O)N[C@@H](Cc3ccc4ccccc4c3)C(=O)N[C@@H](CC(=O)O)C(=O)N[C@@H](Cc3ccccc3)C(N)=O)c2c1 (mixture of isomers)
1.58

###

- system-under-test: gastrin receptor (Mus musculus, UniProt P56481)
- Construct: assayed for gastrin activity using the mouse stomach assay; from tissue; host or cells: isolated mouse stomach
- Sequence (P56481 1-453): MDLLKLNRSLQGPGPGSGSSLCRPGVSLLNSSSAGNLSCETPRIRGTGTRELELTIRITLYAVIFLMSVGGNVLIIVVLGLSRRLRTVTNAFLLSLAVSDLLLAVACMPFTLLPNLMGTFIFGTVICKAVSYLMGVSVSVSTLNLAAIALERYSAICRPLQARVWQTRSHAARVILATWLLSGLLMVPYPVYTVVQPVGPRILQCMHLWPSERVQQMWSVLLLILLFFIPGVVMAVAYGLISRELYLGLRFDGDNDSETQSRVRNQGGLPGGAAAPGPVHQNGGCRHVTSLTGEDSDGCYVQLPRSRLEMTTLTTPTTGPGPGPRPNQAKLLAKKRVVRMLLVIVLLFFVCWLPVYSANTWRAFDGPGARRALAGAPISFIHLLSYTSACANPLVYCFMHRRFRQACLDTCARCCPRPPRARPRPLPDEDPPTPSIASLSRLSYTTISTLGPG
- experimental-protocol: mouse stomach assay for gastrin activity (isolated stomach, acid secretion)
- Assay type: cell-based
- study-conditions: mouse stomach; 10^-5 M test compound; relative to pentagastrin; NS = not significant
- Method: The compounds were assayed for gastrin activity using the mouse stomach assay as described by Black, J. W. and Shankley, N. P., Br. J. Pharmacol., 86, 571-579, (1985), and also in the guinea-pig fundus assay, as follows: […]
Non-standard residues stand in square brackets, D forms with d. Residues, ends and D or L forms follow the SMILES beside them. *: point of attachment. 2Nal = N[C@@H](Cc1ccc2ccccc2c1)C(=O)O; Boc = CC(C)(C)OC(=O)*; For = O=C*
result-type: Acid seretion at 10^-5 M test compound, relative to pentagastrin (%)
Could you give me the number in %? Just the number is fine.

The cases that follow already have their Acid seretion at 10^-5 M test compound, relative to pentagastrin (%) on record.
compound=CC(C)(C)OC(=O)N[C@@H](Cc1c[nH]c2ccccc12)C(=O)N[C@@H](Cc1ccc2ccccc2c1)C(=O)N[C@@H](CC(=O)O)C(=O)NCCc1ccccc1F system_under_test="gastrin receptor (Mus musculus, UniProt P56481)" readout_value=25
compound=CC(C)(C)OC(=O)N[C@@H](Cc1c[nH]c2ccccc12)C(=O)N[C@@H](Cc1ccc2ccccc2c1)C(=O)N[C@H](CC(=O)O)C(=O)NCCc1ccc(F)cc1 system_under_test="gastrin receptor (Mus musculus, UniProt P56481)" readout_value=25

Name the recorded Acid seretion at 10^-5 M test compound, relative to pentagastrin (%) for CC(C)(C)OC(=O)N[C@@H](Cc1cn(C=O)c2ccccc12)C(=O)N[C@@H](Cc1ccc2ccccc2c1)C(=O)N[C@@H](CC(=O)O)C(=O)N[C@@H](Cc1ccccc1)C(N)=O [Example 60] (Boc-W(For)[2Nal]DF-NH2) .
20
